System: human gingival fibroblasts (HGF)
ASSAY_TEXT: in vitro
Lab note: compare CC50 with 20 µM, writing T if less and F if equal or more.

// below: answered molecules
| MOLECULE | LABEL |
| --- | --- |
| Cc1ccc(C=C2CN(C(=O)c3ccc(OCCN4CCCCC4)cc3)CC(=Cc3ccc(C)cc3)C2=O)cc1.Cc1ccc(C=C2CN(C(=O)c3ccc(OCCN4CCCCC4)cc3)CC(=Cc3ccc(C)cc3)C2=O)cc1.Cl.Cl.O [Compound 5d, hydrochloride hemihydrate] | T |
| CC[N+](C)(CC)CCOc1ccc(C(=O)N2CC(=Cc3ccc(Cl)cc3)C(=O)C(=Cc3ccc(Cl)cc3)C2)cc1.[I-] | F |

Exercise: Report whether reported CC50 is lower than 20 µM (strictly) for Cl.O=C1C(=Cc2ccc(Cl)cc2)CN(C(=O)c2ccc(OCCN3CCOCC3)cc2)CC1=Cc1ccc(Cl)cc1 [Compound 6b, hydrochloride]
Key: F

Exercise: # TODO verify CC50 < 20 µM strictly for this molecule: CC[N+](C)(CC)CCOc1ccc(C(=O)N2CC(=Cc3ccc(C)cc3)C(=O)C(=Cc3ccc(C)cc3)C2)cc1.[I-]
Key: F

Exercise: In the record for O=C1C(=Cc2ccc(Cl)cc2)CNCC1=Cc1ccc(Cl)cc1 , is CC50 less than 20 µM?
Key: F

---

Tested on: SR
ASSAY_TEXT: Human tumour cell line panel, leukemic SR
Format: cell-based
ASSAY_CONTEXT: 48 h; read-out: Leukemic cells, IC50(μM) SR
Parameter: IC50. Scope: all listed entries.
Write down the numeric answer in µM and omit the unit.

Solved cases below.
| COMPOUND | TARGET_SYSTEM | UNIT_INFO | IC50 |
| --- | --- | --- | --- |
| O=C1C(=Cc2ccccc2)CNCC1=Cc1ccccc1 [Compound 1a] | SR | µM | 0.209 |
| CC[N+](C)(CC)CCOc1ccc(C(=O)N2CC(=Cc3ccc(C)cc3)C(=O)C(=Cc3ccc(C)cc3)C2)cc1.[I-] [Compound 7d] | SR | µM | 22.9 |

Below: the item to evaluate.
For CC[N+](C)(CC)CCOc1ccc(C(=O)N2CC(=Cc3ccccc3)C(=O)C(=Cc3ccccc3)C2)cc1.[I-] [Compound 7a] the compound record lists IC50 as 38

---

Recorded measurements of SI (selectivity index), one per entry
Test system: HGF, HPC and HPLF cells versus HSC-2, HSC-4 and HL-60 neoplasms
ASSAY_TEXT: Selectivity index, normal versus malignant cells
Format: cell-based, human
ASSAY_CONTEXT: average CC50 of HGF, HPLF divided by average CC50 of HSC-2, HSC-4, HL-60
Answer with a bare number; do not write a unit.

Known results for compounds:
| COMPOUND_SMILES | SI (selectivity index) |
| --- | --- |
| Cc1ccc(C=C2CNCC(=Cc3ccc(C)cc3)C2=O)cc1 | 29 |
| CCN(CC)CCOc1ccc(C(=O)N2CC(=Cc3ccc([N+](=O)[O-])cc3)C(=O)C(=Cc3ccc([N+](=O)[O-])cc3)C2)cc1.Cl | 6.6 |

Turning to the following compound.
Record summary for CCN(CC)CCOc1ccc(C(=O)N2CC(=Cc3ccc(C)cc3)C(=O)C(=Cc3ccc(C)cc3)C2)cc1.Cl : reported SI (selectivity index) = 3.3
